Biological target: T1, human CD81 mutant V135L (human, UniProt P60033 1-236, limits assumed)
T1 construct: as m30; not shown: C-terminal V5 and 6xHis tags
T1 sequence: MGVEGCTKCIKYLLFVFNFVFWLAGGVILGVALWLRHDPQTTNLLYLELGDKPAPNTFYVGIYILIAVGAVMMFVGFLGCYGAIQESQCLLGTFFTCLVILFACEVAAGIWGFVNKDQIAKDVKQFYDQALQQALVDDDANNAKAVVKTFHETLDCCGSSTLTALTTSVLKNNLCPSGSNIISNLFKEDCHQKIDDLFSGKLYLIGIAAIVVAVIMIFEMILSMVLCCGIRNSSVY
Test: ELISA
relative binding affinity overview
EXPERIMENTAL READOUT: relative binding affinity

BINDER | EXPERIMENTAL RESULT
002-A07 N113Q (antibody, human IgG4 S228P, lambda, V domains shown, IgG4 S228P; glycosylation site mutant of 002-A07 VL) VH: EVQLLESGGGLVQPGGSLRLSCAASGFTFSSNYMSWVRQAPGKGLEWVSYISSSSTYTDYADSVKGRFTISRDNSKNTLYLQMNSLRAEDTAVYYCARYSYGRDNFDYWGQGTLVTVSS VL: QSVLTQPPSASGTPGQRVTISCTGSTSNIGAGYDTHWYQQLPGTAPKLLIYGNSNRPSGVPDRFSGSKSGTSASLAISGLRSEDEADYYCQSYDTQLSVWVFGGGTKLTVLG | < 20%
002-A07 S115G (antibody, human IgG4 S228P, lambda, V domains shown, IgG4 S228P; glycosylation site mutant of 002-A07 VL) VH: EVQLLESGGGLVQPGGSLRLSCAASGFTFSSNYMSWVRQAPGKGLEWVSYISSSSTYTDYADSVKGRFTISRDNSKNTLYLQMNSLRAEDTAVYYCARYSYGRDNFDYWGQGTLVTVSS VL: QSVLTQPPSASGTPGQRVTISCTGSTSNIGAGYDTHWYQQLPGTAPKLLIYGNSNRPSGVPDRFSGSKSGTSASLAISGLRSEDEADYYCQSYDTNLGVWVFGGGTKLTVLG | < 20%
